Attribution: paper doi:10.1101/717207v1

protocol: Peptide secondary structure by ATR-FTIR in the absence or presence of heparin
Assay type: physicochemical
reported_conditions: ATR-FTIR, 1659 cm^-1; +Hep (8.3 µM heparin, peptide per ITC stoichiometry)
assay_metric: Percentage of structural elements: α-Helix (%)

- seq: "RRWWRRWWR [aR5W4]"
  reading: 30
- seq: "RRWWRRWRR [aR6W3]"
  reading: 28
- seq: "RWWWWRRRR [nR5W4]"
  reading: 26
- seq: "RRRWRRWRR [aR7W2]"
  reading: 26
- seq: "RRWRRRRWW [nR6W3]"
  reading: 27

----------
protocol: Peptide secondary structure by ATR-FTIR in the absence or presence of heparin
Format: physicochemical
reported_conditions: ATR-FTIR, 1643 cm^-1; +Hep (8.3 µM heparin, peptide per ITC stoichiometry)
assay_metric: Percentage of structural elements: Random coil (%)

- seq: "RWWWWRRRR [nR5W4]"
  reading: 22
- seq: "RRWWRRWRR [aR6W3]"
  reading: 24
- seq: "RRRWRRWRR [aR7W2]"
  reading: 20
- seq: "RRWRRRRWW [nR6W3]"
  reading: 24
- seq: "RRWWRRWWR [aR5W4]"
  reading: 20
